assay.conditions: 293.15 K; 101.33 kPa; Liquid; Vibrating tube method
value.kind: mass density (kg/m3)
Report the value in kg/m3 with no unit label.

Inquiry: Form field: reported mass density of CC(=O)O
Reply text: 1044.7

Inquiry: Form field: reported mass density of COC(=O)/C=C\C(=O)OC [dimethyl cis-butenedioate]
Reply text: 1160.8

Inquiry: Form field: reported mass density of O=CO
Reply text: 1221.1

Inquiry: Form field: reported mass density of CCC(=O)O
Reply text: 988.3
